target: HSD10 (Homo sapiens, UniProt Q99714); construct: endogenous in cells; host or cells: PC3 cells; test: HSD10 Enzyme Inhibition Assay; type: biochemical; conditions: 50 μM drug
Sequence (Q99714 whole entry): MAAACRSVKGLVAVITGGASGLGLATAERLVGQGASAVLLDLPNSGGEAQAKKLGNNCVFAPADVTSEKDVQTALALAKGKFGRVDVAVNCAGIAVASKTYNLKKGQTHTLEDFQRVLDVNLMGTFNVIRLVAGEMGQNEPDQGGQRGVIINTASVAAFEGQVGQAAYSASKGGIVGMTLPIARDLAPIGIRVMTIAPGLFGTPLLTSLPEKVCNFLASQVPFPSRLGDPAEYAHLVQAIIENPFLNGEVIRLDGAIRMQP
propertyMeasured: Oxidative Activity Rate
Give the figure together with its unit, number first.

Record excerpt, results attached:
CN(C)CCCN1c2ccccc2CCc2ccc(Cl)cc21; 2.3 µM/min
Cc1nc2n(c(=O)c1CCN1CCC(c3noc4cc(F)ccc34)CC1)CCCC2; 1.0 µM/min
CN(C)CCOC(c1ccccc1)c1ccccc1 [Diphenhydramine]; 8.0 µM/min

Looking up CN(C)CCCN1c2ccccc2Sc2ccc(Cl)cc21 , I found its Oxidative Activity Rate recorded as 7.7 µM/min
